# condition.set: 0.5 h, 10 μM
Classification scheme (Prodrug (%) remaining, Rat Plasma): low band = under 0.3%, middle band = from 0.3% up to 60%, high band = 60% and over

Example entries begin here.
COc1ccc([C@@]23CCC(OC(=O)c4c(C)cc(C)cc4C)=C[C@@H]2N(C)CC3)cc1OC    high band
CCCC(CCC)C(=O)OC1=C[C@@H]2N(C)CC[C@]2(c2ccc(OC)c(OC)c2)CC1    high band

From here, focus on the item given below.
Problem: Please let me know in which category the item CCCCC(CC)C(=O)OC1=C[C@@H]2N(C)CC[C@]2(c2ccc(OC)c(OC)c2)CC1 (stereo partly drawn) belongs.
Result: middle band

###

Measured Condition 1 Conversion (%) accompanies every entry in the list below.
# Assay type: physicochemical
# condition.set: SGF with pepsin, pH 1.5, 37° C., 0.5 mM; time 30 min
API: value field is a number in %; no unit string.

COc1ccc(NC(=O)NN=C2CC[C@@]3(c4ccc(OC)c(OC)c4)CCN(C)[C@H]3C2)cc1 [Compound 254]    84.7

# molecule COc1ccc([C@@]23CC/C(=N\NC(=O)Nc4ccccc4Cl)C[C@@H]2N(C)CC3)cc1OC [Compound 249] ; its Condition 1 Conversion (%) = 96.4

# molecule COc1ccc([C@@]23CC/C(=N\NC(=O)NCCc4cccs4)C[C@@H]2N(C)CC3)cc1OC [Compound 256] ; its Condition 1 Conversion (%) = 100

###

# protocol.summary: Plasma Stability Assay of Example A3, human plasma
# condition.set: 30 min; 5 μM, 37° C.; % of prodrug compound remaining
We label by threshold. Values of Human Plasma Prodrug (%) strictly beneath 90% are 1.0. Values of 90% and up are 0.0.

COc1ccc([C@@]23CCC(OC(=O)c4cccc(C(C)(C)C)c4)=C[C@@H]2N(C)CC3)cc1OC [Compound 375]    0.0
COc1ccc([C@@]23CCC(OC(=O)c4c(C)cccc4C)=C[C@@H]2N(C)CC3)cc1OC [Compound 372]    0.0

From here, focus on the item given below.
Problem: Answer whether the molecule COc1ccc([C@@]23CCC(OC(=O)C4CC4)=C[C@@H]2N(C)CC3)cc1OC [Compound 312] has Human Plasma Prodrug (%) strictly less than 90%
Result: 1.0

###

Measured Condition 2 Conversion (%) accompanies every entry in the list below.
# Assay type: physicochemical
# condition.set: DI water, 25° C., 0.5 mM; time 1 h
API: value field is a number in %; no unit string.

Answered cases to consult:
COc1ccc([C@@]23CC/C(=N/OC45CC6CC(CC(C6)C4)C5)C[C@@H]2N(C)CC3)cc1OC [Compound 274]    0
COc1ccc([C@@]23CCC(=NNc4ncccc4C)C[C@@H]2N(C)CC3)cc1OC    35.78
CCON=C1CC[C@@]2(c3ccc(OC)c(OC)c3)CCN(C)[C@H]2C1    0
COc1ccc([C@@]23CCC(=NNCc4ccccn4)C[C@@H]2N(C)CC3)cc1OC    0
COc1ccc([C@@]23CCC(=NNC(=O)c4ccc(F)cc4)C[C@@H]2N(C)CC3)cc1OC    55.36
COc1ccc([C@@]23CCC(=NNc4ccc5ccccc5n4)C[C@@H]2N(C)CC3)cc1OC    11.33
COc1ccc([C@@]23CCC(=NNCc4cccnc4)C[C@@H]2N(C)CC3)cc1OC    10

Note: attention shifts to another entry.
# compound COc1ccc([C@@]23CCC(=NOCc4cccnc4)C[C@@H]2N(C)CC3)cc1OC ; its Condition 2 Conversion (%) = 0
